- Test system: Plasmodium falciparum
- protocol description: GSK_TCMDC: Inhibition of Plasmodium falciparum 3D7 in whole erythrocytes, using parasite LDH activity as an index of growth.
- Assay type: functional, organism-based
- run conditions: Plasmodium falciparum, 3D7
reported endpoint: XC50 (nM)
Provide the reading as a plain figure in nM.

Ask: Query (compound): CN(C)c1ccc(C2(c3ccccc3)N=C(N)N(CCCc3ccccc3)C2=O)cc1 (centres undefined) ; field requested: XC50
Reply: 971

Ask: Look up XC50: COc1ccc(Cc2c(Cl)nc3nc(N)nc(N)c3c2C)c(OC)c1OC
Reply: 725

Ask: Give its XC50 value. Item: O=C(Nc1cc(C(F)(F)F)cc(C(F)(F)F)c1)NC1CCC(CN2CCC(c3c[nH]c4ccccc34)CC2)CC1 (centres undefined)
Reply: 810

Ask: Tell me the measured XC50 of COc1cccc(NC(=O)Nc2cc(C)nc3ccccc23)c1 , please.
Reply: 723

Ask: Which measured XC50 value corresponds to CC(=O)Nc1ccc(Nc2ncc([N+](=O)[O-])c(Nc3ccccc3C(N)=O)n2)cc1 ?
Reply: 366

Ask: # XC50 lookup, item O=C(/C=C/c1ccc(Cl)cc1)NCCCCCN1CCN(C(=O)Nc2ccc(Cl)c(C(F)(F)F)c2)CC1
Reply: 920

Ask: Fill in the blank: the reported XC50 of COc1cc(NCC(C)CNCc2cn(Cc3ccccc3)c3ccccc23)nc2ccccc12 (centres undefined) is ____.
Reply: 633

Ask: Given the compound COc1ccccc1C(=O)C1CCCN(C(=O)c2ccccc2C(F)(F)F)C1 (centres undefined) , what is its reported XC50?
Reply: 602

Ask: Dear colleague, I am looking for the recorded XC50 of the following compound: COC(=O)c1cccc(CNCc2ccc(-c3ccc(-c4nc5cc(F)ccc5[nH]4)s3)cc2)c1
Reply: 588
